Provide the reported MIC of each item.
Tested on: Escherichia coli (E. coli) strain CFT073 ATCC 700928
Format: cell-based
applied conditions: ATCC 700928, 22 h
*1 amine or outer side, *2 acyl side, *3 side chain or, on linkers, in order; H or OH if unused. Where a SMILES comes first, the peptide text is derived from it. [ ]: non-standard residue; d: D form. The star is where a group is joined. X13 = C[C@H](CO[C@H](CC1CC2(CCC2)C1)[C@@H](C)C(=O)[*:2])N[*:1]; Gly(cHept) = N[C@H](C(=O)O)C1CCCCCC1; Chg = N[C@H](C(=O)O)C1CCCCC1; NMeNva = CCC[C@H](NC)C(=O)O; Dap = NC[C@H](N)C(=O)O; Propyl(3-NH2) = NCCC*; X22 = C1CC(*)CCN1
One number for each entry, in µM.

CCC[C@H]1C(=O)N[C@@H](C2CCCCCC2)C(=O)N[C@@H](CN)C(=O)N[C@@H](COC2CCNCC2)C(=O)N[C@H](C)CO[C@H](CC2CC3(CCC3)C2)[C@@H](C)C(=O)N1C [Example 163] (cyclo([Dap]S(X22)[X13][NMeNva][Gly(cHept)])) ... 4.4
CCCCCCCCCC[C@H]1OC(=O)CNC(=O)[C@H]([C@H](C)O)NC(=O)[C@H](CN)NC(=O)[C@H](C2CCC(F)(F)CC2)NC(=O)[C@H](CC(C)C)N(C)C(=O)[C@@H]1C (single isomer, unassigned) ... 25
CCCCCC[C@H]1OC(=O)CNC(=O)[C@H]([C@H](C)O)NC(=O)[C@H](CN)NC(=O)[C@H]([C@H](C)CC)NC(=O)[C@H](CC2CCCC2)N(C)C(=O)[C@@H]1C ... 6.3

// next item, MIC requested
Problem: Request the reported MIC associated with CCC[C@H]1C(=O)N[C@@H](C2CCCCC2)C(=O)N[C@@H](CN)C(=O)N[C@@H](COCCCN)C(=O)N[C@H](C)CO[C@H](CC2CC3(CCC3)C2)[C@@H](C)C(=O)N1C [Example 157] (cyclo([Chg][Dap]S(Propyl(3-NH2))[X13][NMeNva]))
Result: 12
